Tested on: Klebsiella pneumoniae X26
Test Description: MIC, standard agar-dilution assay
Assay type: cell-based
Run Parameters: Klebsiella pneumoniae, X26
Measured Property: MIC

Completed entries (count: 4):
{"columns": ["Compound", "Assay Target", "MIC"],
 "data": [
  ["CCC1OC(=O)CC(O)C(C)C(OC2OC(C)C(O)C(N(C)C)C2O)C(CCOc2ccccc2)CC(C)C(=O)C=CC(C)=CC1COC(=O)CCc1ccccc1 (centres unmarked)", "Klebsiella pneumoniae X26", "32 µg/mL"],
  ["CCC1OC(=O)CC(O)C(C)C(OC2OC(C)C(OC(C)=O)C(N(C)C)C2OC(C)=O)C(CCOC(=O)Cc2ccccc2)CC(C)C(=O)C=CC(C)=CC1CO (centres unmarked)", "Klebsiella pneumoniae X26", "4 µg/mL"],
  ["CCC1CC(C)C(=O)C=CC(C)=CC(COc2cccc(N(C)C)c2)C(CC)OC(=O)CC(O)C(C)C1OC1OC(C)C(O)C(N(C)C)C1O (centres unmarked)", "Klebsiella pneumoniae X26", "32 µg/mL"],
  ["CCC1OC(=O)CC(O)C(C)C(OC2OC(C)C(O)C(N(C)C)C2O)C(CCOC(=O)Cc2ccccc2)CC(C)C(=O)C=CC(C)=CC1COC(=O)Cc1ccccc1 (centres unmarked) [Compound 30, 20,23-Di-O-Phenylacetyl-20-dihydro-OMT]", "Klebsiella pneumoniae X26", "8 µg/mL"]
]}

The record that follows has no MIC shown yet.
Given the entry CCC1OC(=O)CC(O)C(C)C(OC2OC(C)C(O)C(N(C)C)C2O)C(CCN2C(=O)c3ccccc3C2=O)CC(C)C(=O)C=CC(C)=CC1C (centres unmarked) , what MIC was observed with Klebsiella pneumoniae X26?
32 µg/mL

* * *

Below is a list of entries, each paired with its recorded MIC value.
System: Streptococcus pneumoniae Park I
Test Description: MIC, standard agar-dilution assay
Assay type: cell-based
Run Parameters: agar-dilution; Streptococcus pneumoniae Park I; read-out: MIC
# unit: µg/mL | format: bare number

{"columns": ["Molecule", "Unit String", "MIC"],
 "data": [
  ["CCC1OC(=O)CC(O)C(C)C(OC2OC(C)C(O)C(N(C)C)C2O)C(CCNCCc2ccccc2)CC(C)C(=O)C=CC(C)=CC1CO (stereo not drawn)", "µg/mL", 1],
  ["CCC1OC(=O)CC(O)C(C)C(OC2OC(C)C(O)C(N(C)C)C2O)C(CCO)CC(C)C(=O)C=CC(C)=CC1CN1CCCCCCC1 (stereo not drawn)", "µg/mL", 0.25],
  ["CCC1OC(=O)CC(O)C(C)C(OC2OC(C)C(O)C(N(C)C)C2O)C(CCOc2ccccc2)CC(C)C(=O)C=CC(C)=CC1CN1CCCCCCC1 (stereo not drawn)", "µg/mL", 0.12]
]}

Given the entry CCC1OC(=O)CC(O)C(C)C(OC2OC(C)C(O)C(N(C)C)C2O)C(CCN2C(=O)c3ccccc3C2=O)CC(C)C(=O)C=CC(C)=CC1CO (stereo not drawn) [Compound 6, 20-N-Phthalimido-20-deoxy-20-dihydro-OMT] , what MIC was observed with Streptococcus pneumoniae Park I?
2

Given the entry CCC1CC(C)C(=O)C=CC(C)=CC(CN2CCC(O)CC2)C(CC)OC(=O)CC(O)C(C)C1OC1OC(C)C(O)C(N(C)C)C1O (stereo not drawn) , what MIC was observed with Streptococcus pneumoniae Park I?
2

Given the entry CCC1OC(=O)CC(O)C(C)C(OC2OC(C)C(OC3CC(C)(O)C(O)C(C)O3)C(N(C)C)C2O)C(CCN2C(=O)c3ccccc3C2=O)CC(C)C(=O)C=CC(C)=CC1CN1C(=O)c2ccccc2C1=O (stereo not drawn) , what MIC was observed with Streptococcus pneumoniae Park I?
16

Given the entry CCC1OC(=O)CC(O)C(C)C(OC2OC(C)C(OC3CC(C)(O)C(O)C(C)O3)C(N(C)C)C2O)C(CCN2C(=O)c3ccccc3C2=O)CC(C)C(=O)C=CC(C)=CC1C (stereo not drawn) , what MIC was observed with Streptococcus pneumoniae Park I?
8

Given the entry CCC1OC(=O)CC(O)C(C)C(OC2OC(C)C(OC3CC(C)(O)C(O)C(C)O3)C(N(C)C)C2O)C(CCN2C(=O)c3ccccc3C2=O)CC(C)C(=O)C=CC(C)=CC1CO (stereo not drawn) [Compound 17, 20-N-Phthalimido-20-deoxy-20-dihydro-DMT] , what MIC was observed with Streptococcus pneumoniae Park I?
16

Given the entry CCC1OC(=O)CC(O)C(C)C(OC2OC(C)C(O)C(N(C)C)C2O)C(CCOc2ccccc2)CC(C)C(=O)C=CC(C)=CC1COc1ccccc1 (stereo not drawn) [Compound 32, 20,23-Di-O-phenyl-20-dihydro-OMT] , what MIC was observed with Streptococcus pneumoniae Park I?
0.25

* * *

Tested on: Pasteurella multocida 60A
Test Description: MIC, conventional broth-dilution microtiter test
Assay type: cell-based
Run Parameters: Pasteurella multocida, 60A
Measured Property: MIC (µg/mL)
# unit: µg/mL | format: bare number

Completed entries (count: 2):
{"columns": ["Compound", "MIC / µg/mL"],
 "data": [
  ["CCC1OC(=O)CC(O)C(C)C(OC2OC(C)C(O)C(N(C)C)C2O)C(CCOC(=O)Cc2ccccc2)CC(C)C(=O)C=CC(C)=CC1COC(=O)Cc1ccccc1 (stereo not drawn) [Compound 30, 20,23-Di-O-Phenylacetyl-20-dihydro-OMT]", 6.25],
  ["CCC1OC(=O)CC(O)C(C)C(OC2OC(C)C(O)C(N(C)C)C2O)C(CCOC(=O)Cc2ccccc2)CC(C)C(=O)C=CC(C)=CC1CO (stereo not drawn) [Compound 1, 20-O-Phenylacetyl-20-dihydro-OMT]", 25]
]}

Report MIC for CCC1OC(=O)CC(O)C(C)C(OC2OC(C)C(O)C(N(C)C)C2O)C(CCOc2ccccc2)CC(C)C(=O)C=CC(C)=CC1COC(=O)CCc1ccccc1 (stereo not drawn) please.
3.12

* * *

Test system: Staphylococcus aureus
Test Description: MIC, conventional broth-dilution microtiter test
Type: cell-based
Run Parameters: broth-dilution microtiter, read-out: MIC
Below is a list of entries, each paired with its recorded MIC value.
# unit: µg/mL | format: bare number

Completed entries (count: 5):
{"columns": ["Compound", "MIC / µg/mL"],
 "data": [
  ["CCC1CC(C)C(=O)C=CC(C)=CC(CN2CCCCCCC2)C(CC)OC(=O)CC(O)C(C)C1OC1OC(C)C(OC(C)=O)C(N(C)C)C1OC(C)=O (stereo not shown) [Compound 57]", 0.39],
  ["CCC1OC(=O)CC(O)C(C)C(OC2OC(C)C(O)C(N(C)C)C2O)C(CCN(C)C)CC(C)C(=O)C=CC(C)=CC1CO (stereo not shown) [Compound 2]", 50],
  ["CCC1OC(=O)CC(O)C(C)C(OC2OC(C)C(O)C(N(C)C)C2O)C(CCOc2ccccc2)CC(C)C(=O)C=CC(C)=CC1CN1CCCCCCC1 (stereo not shown) [Compound 34]", 0.39],
  ["CCC1OC(=O)CC(O)C(C)C(OC2OC(C)C(O)C(N(C)C)C2O)C(CCOc2ccccc2)CC(C)C(=O)C=CC(C)=CC1COc1ccccc1 (stereo not shown) [Compound 32, 20,23-Di-O-phenyl-20-dihydro-OMT]", 0.39],
  ["CCC1OC(=O)CC(O)C(C)C(OC2OC(C)C(O)C(N(C)C)C2O)C(CCO)CC(C)C(=O)C=CC(C)=CC1CN1CCCCCCC1 (stereo not shown) [Compound 58]", 0.78]
]}

The record that follows has no MIC shown yet.
Report MIC for CCC1CC(C)C(=O)C=CC(C)=CC(CN2CCCCCCC2)C(CC)OC(=O)CC(O)C(C)C1OC1OC(C)C(O)C(N(C)C)C1O (stereo not shown) [Compound 43] please.
0.39

* * *

Tested on: Pasteurella hemolytica 23C
Test Description: MIC, conventional broth-dilution microtiter test
Type: cell-based
Run Parameters: broth-dilution microtiter; Pasteurella hemolytica 23C; read-out: MIC
Label Satisfied when MIC is strictly below 10 mg/L; otherwise label Not satisfied.

Example results:
{"columns": ["Molecule", "Assay Target", "Class"],
 "data": [
  ["CCC1OC(=O)CC(O)C(C)C(OC2OC(C)C(OC3CC(C)(O)C(O)C(C)O3)C(N(C)C)C2O)C(CCNCc2ccccc2)CC(C)C(=O)C=CC(C)=CC1C (stereo not drawn)", "Pasteurella hemolytica 23C", "Not satisfied"],
  ["CCC1CC(C)C(=O)C=CC(C)=CC(COc2cccc(N(C)C)c2)C(CC)OC(=O)CC(O)C(C)C1OC1OC(C)C(O)C(N(C)C)C1O (stereo not drawn)", "Pasteurella hemolytica 23C", "Not satisfied"],
  ["CCC1OC(=O)CC(O)C(C)C(OC2OC(C)C(OC3CC(C)(O)C(O)C(C)O3)C(N(C)C)C2O)C(CCN2C(=O)c3ccccc3C2=O)CC(C)C(=O)C=CC(C)=CC1C (stereo not drawn)", "Pasteurella hemolytica 23C", "Not satisfied"],
  ["CCC1OC(=O)CC(O)C(C)C(OC2OC(C)C(OC3CC(C)(O)C(O)C(C)O3)C(N(C)C)C2O)C(CCNCCc2ccccc2)CC(C)C(=O)C=CC(C)=CC1CO (stereo not drawn)", "Pasteurella hemolytica 23C", "Not satisfied"],
  ["CCC1OC(=O)CC(O)C(C)C(OC2OC(C)C(OC3CC(C)(O)C(O)C(C)O3)C(N(C)C)C2O)C(CCN2C(=O)c3ccccc3C2=O)CC(C)C(=O)C=CC(C)=CC1CO (stereo not drawn) [Compound 17, 20-N-Phthalimido-20-deoxy-20-dihydro-DMT]", "Pasteurella hemolytica 23C", "Not satisfied"]
]}

Is it true that MIC reported for CCC1CC(C)C(=O)C=CC(C)=CC(CSc2ccccc2)C(CC)OC(=O)CC(O)C(C)C1OC1OC(C)C(O)C(N(C)C)C1O (stereo not drawn) is less than 10 mg/L?
Not satisfied

Is it true that MIC reported for CCC1OC(=O)CC(O)C(C)C(OC2OC(C)C(O)C(N(C)C)C2O)C(CCNCCc2ccccc2)CC(C)C(=O)C=CC(C)=CC1CO (stereo not drawn) is less than 10 mg/L?
Satisfied

Is it true that MIC reported for CCC1OC(=O)CC(O)C(C)C(OC2OC(C)C(O)C(N(C)C)C2O)C(CCO)CC(C)C(=O)C=CC(C)=CC1CN1CCCCCCC1 (stereo not drawn) is less than 10 mg/L?
Satisfied

Is it true that MIC reported for CCC1OC(=O)CC(O)C(C)C(OC2OC(C)C(O)C(N(C)C)C2O)C(CCN2C(=O)c3ccccc3C2=O)CC(C)C(=O)C=CC(C)=CC1CO (stereo not drawn) [Compound 6, 20-N-Phthalimido-20-deoxy-20-dihydro-OMT] is less than 10 mg/L?
Not satisfied

Is it true that MIC reported for CCC1CC(C)C(=O)C=CC(C)=CC(CN2CCC(O)CC2)C(CC)OC(=O)CC(O)C(C)C1OC1OC(C)C(O)C(N(C)C)C1O (stereo not drawn) is less than 10 mg/L?
Not satisfied

Is it true that MIC reported for CCC1CC(C)C(=O)C=CC(C)=CC(COc2cccc(OC)c2OC)C(CC)OC(=O)CC(O)C(C)C1OC1OC(C)C(O)C(N(C)C)C1O (stereo not drawn) is less than 10 mg/L?
Not satisfied
